Cited source for all entries: ChEMBL document CHEMBL1909046

- target.under.test: Voltage-gated inwardly rectifying potassium channel KCNH2 (Homo sapiens, UniProt Q12809); note: in other assays of this panel Not Active means under 50% inhibition at 10 µM
- Sequence (Q12809 whole entry): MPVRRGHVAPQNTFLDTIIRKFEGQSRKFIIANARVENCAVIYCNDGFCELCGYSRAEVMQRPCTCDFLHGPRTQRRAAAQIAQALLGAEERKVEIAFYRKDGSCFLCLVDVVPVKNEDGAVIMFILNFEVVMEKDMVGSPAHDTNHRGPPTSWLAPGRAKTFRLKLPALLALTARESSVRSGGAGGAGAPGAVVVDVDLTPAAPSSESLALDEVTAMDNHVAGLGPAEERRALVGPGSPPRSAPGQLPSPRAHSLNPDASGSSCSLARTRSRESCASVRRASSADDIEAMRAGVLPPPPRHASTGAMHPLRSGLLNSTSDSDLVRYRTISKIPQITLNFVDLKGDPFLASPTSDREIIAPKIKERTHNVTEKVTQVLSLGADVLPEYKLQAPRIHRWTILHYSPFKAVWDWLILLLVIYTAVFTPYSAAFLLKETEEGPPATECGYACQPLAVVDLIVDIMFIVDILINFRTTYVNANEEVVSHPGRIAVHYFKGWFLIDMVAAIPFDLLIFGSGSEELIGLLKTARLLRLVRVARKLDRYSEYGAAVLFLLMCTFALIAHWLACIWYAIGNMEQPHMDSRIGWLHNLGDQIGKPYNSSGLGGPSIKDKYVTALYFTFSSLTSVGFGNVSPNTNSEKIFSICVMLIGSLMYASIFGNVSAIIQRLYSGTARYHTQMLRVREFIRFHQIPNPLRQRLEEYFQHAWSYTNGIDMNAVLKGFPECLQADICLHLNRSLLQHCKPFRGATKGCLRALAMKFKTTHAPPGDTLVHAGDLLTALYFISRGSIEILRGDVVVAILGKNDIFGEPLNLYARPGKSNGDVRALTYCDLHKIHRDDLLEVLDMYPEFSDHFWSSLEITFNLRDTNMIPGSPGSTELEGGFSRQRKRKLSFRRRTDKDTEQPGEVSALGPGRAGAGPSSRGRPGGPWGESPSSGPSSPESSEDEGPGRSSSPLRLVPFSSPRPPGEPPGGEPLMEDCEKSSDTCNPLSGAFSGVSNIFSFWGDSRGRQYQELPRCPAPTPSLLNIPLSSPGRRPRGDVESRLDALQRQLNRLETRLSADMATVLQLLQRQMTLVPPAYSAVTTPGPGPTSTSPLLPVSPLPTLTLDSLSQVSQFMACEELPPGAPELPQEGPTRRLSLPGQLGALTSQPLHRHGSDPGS
- condition.details: hek293
endpoint.name: IC50

compound=Clc1ccccc1CN1CCc2sccc2C1 result="Not Active"
compound="Cc1c(OCC(F)(F)F)ccnc1C[S+]([O-])c1nc2ccccc2[nH]1 (centres undefined)" result="Not Active"
compound=COc1ccc2c3c1O[C@H]1C[C@@H](O)C=C[C@@]31CCN(C)C2 result="Not Active"
compound=COC(=O)Nc1nc2ccc(C(=O)c3cccs3)cc2[nH]1 result="Not Active"
compound="C[n+]1ccccc1/C=N/O.[Cl-] [PRALIDOXIME CHLORIDE]" result="Not Active"
compound="C#C[C@]1(OC(C)=O)CC[C@H]2[C@@H]3CCC4=C[C@@H](OC(C)=O)CC[C@@H]4[C@H]3CC[C@@]21C [ETHYNODIOL DIACETATE]" result="Not Active"
compound=O=C1CN=C(c2ccccc2Cl)c2cc([N+](=O)[O-])ccc2N1 result="Not Active"
compound="CCCCOc1cc(CC2CNC(=O)N2)ccc1OC (centres undefined)" result="Not Active"
compound=COc1ccc(C2C(=O)c3ccccc3C2=O)cc1 result="Not Active"

* * *

- target.under.test: 5-hydroxytryptamine receptor 2C (Homo sapiens)
- Sequence (P28335 whole entry): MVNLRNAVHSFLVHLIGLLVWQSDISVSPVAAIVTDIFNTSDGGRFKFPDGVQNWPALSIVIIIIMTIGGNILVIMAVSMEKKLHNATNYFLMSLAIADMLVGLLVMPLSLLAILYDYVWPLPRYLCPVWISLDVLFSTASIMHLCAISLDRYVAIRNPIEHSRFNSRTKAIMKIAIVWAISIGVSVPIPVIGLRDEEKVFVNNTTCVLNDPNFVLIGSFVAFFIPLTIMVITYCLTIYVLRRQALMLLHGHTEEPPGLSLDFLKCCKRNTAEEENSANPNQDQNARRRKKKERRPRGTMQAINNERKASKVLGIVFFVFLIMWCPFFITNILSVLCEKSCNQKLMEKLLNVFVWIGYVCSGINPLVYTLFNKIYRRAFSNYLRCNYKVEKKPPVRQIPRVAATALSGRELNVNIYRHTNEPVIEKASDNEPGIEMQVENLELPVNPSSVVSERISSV
- test.name: DRUGMATRIX: Serotonin (5-Hydroxytryptamine) 5-HT2C radioligand binding (ligand: [3H] Mesulergine)
- Assay type: cell membranes, CHO-K1, Membrane
- condition.details: Not Active = under 50% inhibition at 10 µM; read-out: Ki
endpoint.name: Ki (nM)

compound="C[C@@H](CO)NC(=O)[C@@H]1C=C2c3cccc4[nH]cc(c34)C[C@H]2N(C)C1 [ERGONOVINE]" target_under_test="5-hydroxytryptamine receptor 2C (Homo sapiens)" reading_unit=nM numeric_result=11
compound="CCN(CC)CCOc1ccc(/C(=C(/Cl)c2ccccc2)c2ccccc2)cc1 [ENCLOMIPHENE]" target_under_test="5-hydroxytryptamine receptor 2C (Homo sapiens)" reading_unit=nM numeric_result=666
compound="Cc1c(C)c2c(c(C)c1O)CCC(C)(CN1CCN(c3cc(N4CCCC4)nc(N4CCCC4)n3)CC1)O2 (stereo unspecified)" target_under_test="5-hydroxytryptamine receptor 2C (Homo sapiens)" reading_unit=nM numeric_result=3960
compound="CCCCNc1ccc(C(=O)OCCN(C)C)cc1 [TETRACAINE]" target_under_test="5-hydroxytryptamine receptor 2C (Homo sapiens)" reading_unit=nM numeric_result=1710
compound="Oc1c(Cl)cc(Cl)c(Cl)c1Cc1c(O)c(Cl)cc(Cl)c1Cl [HEXACHLOROPHENE]" target_under_test="5-hydroxytryptamine receptor 2C (Homo sapiens)" reading_unit=nM numeric_result=2410
compound="Fc1ccc(C(c2ccc(F)cc2)N2CCN(C/C=C/c3ccccc3)CC2)cc1 [FLUNARIZINE]" target_under_test="5-hydroxytryptamine receptor 2C (Homo sapiens)" reading_unit=nM numeric_result=351
compound="CO[C@@H]1[C@@H](OC)[C@H](C)[C@@](O)(CC(=O)O)O[C@H]1[C@H](C)[C@H]1O[C@@]2(CC[C@@](C)([C@H]3CC[C@@](C)([C@@H]4O[C@@H]([C@H]5O[C@](C)(O)[C@H](C)C[C@@H]5C)C[C@@H]4O[C@@H]4C[C@H](OC)[C@@H](OC)[C@H](C)O4)O3)O2)C[C@H](O)[C@H]1C [MADURAMICIN ACID]" target_under_test="5-hydroxytryptamine receptor 2C (Homo sapiens)" reading_unit=nM numeric_result=18
compound="CN(C)CC[C@@H](c1ccc(Cl)cc1)c1ccccn1 [DEXCHLORPHENIRAMINE]" target_under_test="5-hydroxytryptamine receptor 2C (Homo sapiens)" reading_unit=nM numeric_result=1220
compound="N=C(N)NC(=O)Cc1c(Cl)cccc1Cl [GUANFACINE]" target_under_test="5-hydroxytryptamine receptor 2C (Homo sapiens)" reading_unit=nM numeric_result=761
compound="CC(C)c1cccc(C(C)C)c1O [PROPOFOL]" target_under_test="5-hydroxytryptamine receptor 2C (Homo sapiens)" reading_unit=nM numeric_result=6050
compound="O=c1cc(N2CCOCC2)oc2c(-c3ccccc3)cccc12 [LY-294002]" target_under_test="5-hydroxytryptamine receptor 2C (Homo sapiens)" reading_unit=nM numeric_result=525

* * *

- target.under.test: Tyrosine-protein kinase Lck (Homo sapiens)
- Sequence (P06239 whole entry): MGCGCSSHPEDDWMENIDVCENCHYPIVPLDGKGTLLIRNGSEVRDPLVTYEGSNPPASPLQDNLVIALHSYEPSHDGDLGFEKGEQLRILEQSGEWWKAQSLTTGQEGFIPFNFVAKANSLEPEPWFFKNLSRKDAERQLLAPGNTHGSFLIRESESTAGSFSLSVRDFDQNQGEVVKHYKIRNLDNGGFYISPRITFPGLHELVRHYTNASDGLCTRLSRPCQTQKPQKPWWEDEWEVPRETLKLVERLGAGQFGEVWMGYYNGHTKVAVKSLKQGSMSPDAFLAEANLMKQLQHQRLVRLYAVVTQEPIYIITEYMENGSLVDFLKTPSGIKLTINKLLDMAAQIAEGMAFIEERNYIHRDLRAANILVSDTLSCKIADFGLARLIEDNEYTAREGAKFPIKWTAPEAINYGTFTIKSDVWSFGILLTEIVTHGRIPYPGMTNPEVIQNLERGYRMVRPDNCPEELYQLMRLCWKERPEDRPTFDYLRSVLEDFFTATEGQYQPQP
- test.name: DRUGMATRIX: Protein Tyrosine Kinase, LCK enzyme inhibition (substrate: Poly(Glu:Tyr))
- Assay type: cell-based, Insect cells
- condition.details: insect cells; Not Active = under 50% inhibition at 10 µM
endpoint.name: IC50

molecule=COc1ccc2[nH]cc(CCNC(C)=O)c2c1 result="Not Active"
molecule="Cc1c(OCC(F)(F)F)ccnc1C[S+]([O-])c1nc2ccccc2[nH]1 (stereo not given)" result="Not Active"
molecule=Brc1c(NC2=NCCN2)ccc2nccnc12 result="Not Active"
molecule=O=c1cnn([C@@H]2O[C@H](CO)[C@@H](O)[C@H]2O)c(=O)[nH]1 result="Not Active"
molecule=CS(=O)(=O)c1ccc([C@@H](O)[C@@H](CO)NC(=O)C(Cl)Cl)cc1 result="Not Active"
molecule="CC(c1cc2ccccc2s1)N(O)C(N)=O (stereo not given)" result="Not Active"
molecule=O=C(O)c1cccnc1Nc1cccc(C(F)(F)F)c1 result="Not Active"
molecule=Oc1cccc(O)c1O result="Not Active"
molecule="COC(=O)Nc1nc2ccc([S+]([O-])c3ccccc3)cc2[nH]1 (stereo not given)" result="Not Active"
molecule="CC(C)NCC(O)c1ccc(O)c(O)c1 (stereo not given)" result="Not Active"
molecule=CC(=O)Oc1ccc(C(c2ccc(OC(C)=O)cc2)c2ccccn2)cc1 result="Not Active"
molecule=COc1cc2nc(N3CCN(C(=O)c4ccco4)CC3)nc(N)c2cc1OC result="Not Active"
molecule=CC(=O)[C@H]1[C@H](C#N)C[C@H]2[C@@H]3CC=C4C[C@@H](O)CC[C@]4(C)[C@H]3CC[C@@]21C result="Not Active"
molecule="CC(C)Cc1ccc([C@@H](C)C(=O)O)cc1 [(R)-IBUPROPHEN]" result="Not Active"
molecule="CC(C)NCC(O)COc1cccc2[nH]ccc12 (stereo not given)" result="Not Active"
molecule=O=C1O[C@H]([C@@H](O)CO)C(O)=C1O result="Not Active"
molecule="CC(C(=O)O)c1cccc(Oc2ccccc2)c1 (stereo not given)" result="Not Active"
molecule="CCC1(C)CC(=O)NC1=O (stereo not given) [ETHOSUXIMIDE]" result="Not Active"
molecule=C=CCc1ccc(O)c(OC)c1 result="Not Active"
molecule="CCN1CCC[C@H]1CNC(=O)c1cc(S(N)(=O)=O)ccc1OC [LEVOSULPIRIDE]" result="Not Active"

* * *

- target.under.test: Tyrosine-protein kinase Fyn (Homo sapiens, UniProt P06241);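 note: enzymatic inhibition of Fyn kinase activity measured with Poly(Glu:Tyr) as the phosphorylation substrate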; note: in other assays of this panel Not Active means under 50% inhibition at 10 µM
- Sequence (P06241 whole entry): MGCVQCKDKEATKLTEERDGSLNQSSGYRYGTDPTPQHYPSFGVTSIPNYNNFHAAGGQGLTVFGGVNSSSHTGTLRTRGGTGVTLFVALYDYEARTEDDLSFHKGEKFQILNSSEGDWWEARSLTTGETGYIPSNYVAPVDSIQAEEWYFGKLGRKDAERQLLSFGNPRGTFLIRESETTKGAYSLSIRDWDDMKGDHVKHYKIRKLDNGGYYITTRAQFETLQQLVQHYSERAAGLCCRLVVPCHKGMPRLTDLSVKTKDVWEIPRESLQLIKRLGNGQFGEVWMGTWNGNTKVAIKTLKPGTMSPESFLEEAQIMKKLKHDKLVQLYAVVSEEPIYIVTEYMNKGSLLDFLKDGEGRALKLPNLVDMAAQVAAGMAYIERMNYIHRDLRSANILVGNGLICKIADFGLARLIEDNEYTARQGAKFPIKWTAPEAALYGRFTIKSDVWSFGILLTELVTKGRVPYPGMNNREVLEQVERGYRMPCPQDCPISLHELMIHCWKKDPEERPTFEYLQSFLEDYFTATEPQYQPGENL
- test.name: biochemical
- Type: cell-based, Insect cells
- condition.details: insect cells
endpoint.name: IC50

compound="NC(=O)C[S+]([O-])C(c1ccccc1)c1ccccc1 (stereo not given)" target_under_test="Tyrosine-protein kinase Fyn (Homo sapiens, UniProt P06241)" result="Not Active"
compound=COc1cc2nc(N3CCN(C(=O)c4ccco4)CC3)nc(N)c2cc1OC target_under_test="Tyrosine-protein kinase Fyn (Homo sapiens, UniProt P06241)" result="Not Active"
compound="CCC1(C)CC(=O)NC1=O (stereo not given) [ETHOSUXIMIDE]" target_under_test="Tyrosine-protein kinase Fyn (Homo sapiens, UniProt P06241)" result="Not Active"
compound="CCCCOc1cc(CC2CNC(=O)N2)ccc1OC (stereo not given)" target_under_test="Tyrosine-protein kinase Fyn (Homo sapiens, UniProt P06241)" result="Not Active"
compound=Nc1ccn([C@@H]2O[C@H](CO)[C@@H](O)[C@@H]2O)c(=O)n1 target_under_test="Tyrosine-protein kinase Fyn (Homo sapiens, UniProt P06241)" result="Not Active"
compound=COC(=O)Nc1nc2ccc(C(=O)c3cccs3)cc2[nH]1 target_under_test="Tyrosine-protein kinase Fyn (Homo sapiens, UniProt P06241)" result="Not Active"
compound=CCCOc1ccc(C(=O)OCCN(CC)CC)cc1N target_under_test="Tyrosine-protein kinase Fyn (Homo sapiens, UniProt P06241)" result="Not Active"
compound="NC1CCN(c2nc3c(cc2F)c(=O)c(C(=O)O)cn3-c2ccc(F)cc2F)C1 (stereo not given)" target_under_test="Tyrosine-protein kinase Fyn (Homo sapiens, UniProt P06241)" result="Not Active"
compound=CC(=O)Oc1ccc(C(c2ccc(OC(C)=O)cc2)c2ccccn2)cc1 target_under_test="Tyrosine-protein kinase Fyn (Homo sapiens, UniProt P06241)" result="Not Active"
compound="C[n+]1ccccc1/C=N/O.[Cl-] [PRALIDOXIME CHLORIDE]" target_under_test="Tyrosine-protein kinase Fyn (Homo sapiens, UniProt P06241)" result="Not Active"
